- runDescription: Selectivity index, ratio of IC50 for african green monkey (Cercopithecus aethiops) Vero cells to IC50 for chloroquine-resistant Plasmodium falciparum W2
measurementName: selectivity ratio

INPUT: GET /values?readout=selectivity ratio&item= `O=C(CCCCCCCCn1cc(-c2cccc(-c3ccccc3)c2)nn1)NO`
OUTPUT: > 1.5

INPUT: Another: `O=C(CCCCCn1cc(-c2cccs2)nn1)NO`
OUTPUT: > 130

INPUT: Entry to check: `O=C(CCCCCn1cc(-c2ccc(-c3ccncc3)cc2)nn1)NO`
OUTPUT: > 100

INPUT: Request: `Cc1ccccc1-c1cn(CCCCCC(=O)NO)nn1`
OUTPUT: 1.7

INPUT: Request: `O=C(CCCCCCn1cc(-c2ccc(-c3ccncc3)cc2)nn1)NO`
OUTPUT: > 3.8

INPUT: Now consider `COc1cccc(OC)c1-c1cn(CCCCCC(=O)NO)nn1` .
OUTPUT: > 1.8

---

Field: selectivity ratio. Provide a value for each of the compounds that follow.
- runDescription: Selectivity index, ratio of IC50 for african green monkey (Cercopithecus aethiops) Vero cells to IC50 for chloroquine-resistant Plasmodium falciparum W2
Keep it simple and answer with nothing but the number.

INPUT: Sample `Cc1cccc(-c2cn(CCCCCC(=O)NO)nn2)c1` — what was its selectivity ratio?
OUTPUT: 39.7

INPUT: # iterate: `O=C(CCCCCn1cc(-c2ccccc2)nn1)NO`
OUTPUT: 30.4

INPUT: // repeat for `O=C(CCCCCCn1cc(-c2ccccc2)nn1)NO` and report
OUTPUT: 17.6

INPUT: Try `Cc1ccc(-c2cn(CCCCCC(=O)NO)nn2)cc1` next.
OUTPUT: 27.5

---

- runDescription: Selectivity index, ratio of IC50 for african green monkey (Cercopithecus aethiops) Vero cells to IC50 for chloroquine-resistant Plasmodium falciparum W2
Kindly return 1 if reported selectivity ratio is no lower than 30; return -1 if it is lower.

INPUT: I'd appreciate it if you could say whether `CN(C)c1ccc(-c2cn(CCCCCCC(=O)NO)nn2)cc1` has selectivity ratio at least equal to 30.
OUTPUT: -1

INPUT: Request: `O=C(CCCCCn1cc(-c2ccc3ccccc3n2)nn1)NO`
OUTPUT: 1

INPUT: Also, `O=C(CCCCCn1cc(-c2ccccc2-c2ccccc2)nn1)NO` please.
OUTPUT: -1

INPUT: // next record `CN(C)c1ccc(-c2cn(CCCCCCCC(=O)NO)nn2)cc1`
OUTPUT: -1

INPUT: Item: `O=C(CCCCn1cc(-c2ccccc2)nn1)NO`
OUTPUT: 1

INPUT: Next entry: `COc1ccc(-c2cn(CCCCCC(=O)NO)nn2)cc1`
OUTPUT: -1

INPUT: Lookup `COc1ccccc1-c1cn(CCCCCC(=O)NO)nn1`
OUTPUT: -1

INPUT: What about this compound? `O=C(CCCCCn1cc(-c2ccc3cccnc3c2)nn1)NO`
OUTPUT: 1

INPUT: What do you get for `O=C(CCCCCn1cc(-c2ccccn2)nn1)NO` ?
OUTPUT: -1

---

- System: Plasmodium falciparum
- runDescription: microbe, parasite or virus in culture
- Format: functional, organism-based, W2, Vero
- studyConditions: Plasmodium falciparum, W2, Vero, 72 h; read-out: IC50
- Description: Antimalarial activity against chloroquine-resistant Plasmodium falciparum W2 infected in African green monkey (Cercopithecus aethiops) Vero cells assessed as parasite LDH activity after 72 hrs by Malstat reagent method
What IC50 was measured for each of the following?

INPUT: Which value of IC50 has been reported for `CN(C)c1ccc(-c2cn(CCCCCCC(=O)NO)nn2)cc1` in the records?
OUTPUT: 0.032 µg/mL

INPUT: What about this molecule? `CN(C)c1ccc(-c2cn(CCCCCC(=O)NO)nn2)cc1`
OUTPUT: 0.0385 µg/mL

INPUT: // repeat for `O=C(CCCCCCCn1cc(-c2cccnc2)nn1)NO` and report
OUTPUT: 1.69 µg/mL

INPUT: And then `O=C(CCCCCn1cc(-c2ccccc2-c2ccccc2)nn1)NO` , what is it?
OUTPUT: 2.6 µg/mL

INPUT: Could you do the same for `O=C(CCCCCn1cc(-c2ccncc2)nn1)NO` , please?
OUTPUT: 0.133 µg/mL

INPUT: Next molecule: `O=C(CCCCCCCn1cc(-c2ccccc2)nn1)NO`
OUTPUT: 0.695 µg/mL

INPUT: Continue with `O=C(CCCCCn1cc(-c2ccccc2)nn1)NO`
OUTPUT: 0.13 µg/mL

INPUT: Could you do the same for `COc1ccc2cc(-c3cn(CCCCCC(=O)NO)nn3)ccc2c1` , please?
OUTPUT: 0.031 µg/mL

INPUT: Now the molecule `O=C(CCCCn1cc(-c2ccccc2)nn1)NO`
OUTPUT: 0.12 µg/mL

INPUT: Next entry: `Cc1cccc(-c2cn(CCCCCC(=O)NO)nn2)c1`
OUTPUT: 0.068 µg/mL

INPUT: Check `CN(C)c1ccc(-c2cn(CCCCCCCCC(=O)NO)nn2)cc1` too.
OUTPUT: 1.65 µg/mL

INPUT: Follow-up entry: `O=C(CCCCCn1cc(-c2cccs2)nn1)NO`
OUTPUT: 0.0365 µg/mL

INPUT: Please give the result for `O=C(CCCCCn1cc(-c2cccc(-c3ccccc3)c2)nn1)NO` too.
OUTPUT: 0.026 µg/mL

INPUT: Try the molecule `Cc1ccccc1-c1cn(CCCCCCC(=O)NO)nn1`
OUTPUT: 0.14 µg/mL

INPUT: Also, `CC(/C=C/C(=O)NO)=C\[C@@H](C)C(=O)c1ccc(N(C)C)cc1` please.
OUTPUT: 0.0495 µg/mL

INPUT: Can you handle `Cc1ccccc1-c1cn(CCCCCC(=O)NO)nn1` next?
OUTPUT: 1.95 µg/mL

INPUT: Note, next up: `O=C(CCCCCCCCn1cc(-c2cccc(-c3ccccc3)c2)nn1)NO`
OUTPUT: 3.2 µg/mL

INPUT: Try this molecule too: `O=C(CCCn1cc(-c2ccccc2)nn1)NO`
OUTPUT: 3.5 µg/mL

INPUT: Record: `O=C(CCCCCn1cc(-c2ccccn2)nn1)NO`
OUTPUT: 0.625 µg/mL

INPUT: And `O=C(CCCCCn1cc(-c2ccc3ccccc3n2)nn1)NO` ?
OUTPUT: 0.034 µg/mL

INPUT: # repeat for `COc1cccc(OC)c1-c1cn(CCCCCC(=O)NO)nn1`
OUTPUT: 2.6 µg/mL

INPUT: Can you check `COc1ccc2cc(-c3cn(CCCCCCCC(=O)NO)nn3)ccc2c1` next?
OUTPUT: 0.165 µg/mL

INPUT: Thanks! And `COc1ccccc1-c1cn(CCCCCC(=O)NO)nn1` ?
OUTPUT: 0.0975 µg/mL

INPUT: Same lookup for `O=C(CCCCCCCn1cc(-c2ccc(-c3ccncc3)cc2)nn1)NO` , please.
OUTPUT: 0.128 µg/mL

INPUT: Record: `O=C(CCCCCCn1cc(-c2cccnc2)nn1)NO`
OUTPUT: 0.081 µg/mL

---

- runDescription: Selectivity index, ratio of IC50 for african green monkey (Cercopithecus aethiops) Vero cells to IC50 for chloroquine-sensitive Plasmodium falciparum D6
measurementName: selectivity ratio

INPUT: Data request, read-out selectivity ratio, for `O=C(CCCCn1cc(-c2ccccc2)nn1)NO`
OUTPUT: > 38.1

INPUT: Subsequent entry: `O=C(CCCCCn1cc(-c2cccc(-c3ccccc3)c2)nn1)NO`
OUTPUT: > 127

INPUT: Next record, please: `O=C(CCCCCCn1cc(-c2cccnc2)nn1)NO`
OUTPUT: 50.1

INPUT: Again, but for `COc1ccc2cc(-c3cn(CCCCCCCC(=O)NO)nn3)ccc2c1`
OUTPUT: 5.8

INPUT: And the next one, `O=C(CCCCCCCn1cc(-c2ccccc2)nn1)NO` ?
OUTPUT: > 7.4

INPUT: Now the compound `Cc1cccc(-c2cn(CCCCCC(=O)NO)nn2)c1`
OUTPUT: 34

---

- Tested on: Plasmodium falciparum
- runDescription: microbe, parasite or virus in culture
- Type: functional, organism-based, W2, Vero
- studyConditions: Plasmodium falciparum, W2, Vero, 72 h; read-out: IC50
measurementName: IC50
Record the result as number plus unit.

INPUT: What does the record list as IC50 for `O=C(CCCCCCn1cc(-c2ccc(-c3ccncc3)cc2)nn1)NO` ?
OUTPUT: 1.25 µg/mL

INPUT: Again, but for `O=C(CCCCCCn1cc(-c2ccccn2)nn1)NO`
OUTPUT: 0.04 µg/mL

INPUT: Field entry: `O=C(CCCCCCCCn1cc(-c2ccccc2)nn1)NO`
OUTPUT: 2.75 µg/mL

INPUT: Same question for `O=C(CCCCCn1cc(-c2ccc3cccnc3c2)nn1)NO` please.
OUTPUT: 0.033 µg/mL

INPUT: Now consider `O=C(CCCCCCCn1cc(-c2cccc(-c3ccccc3)c2)nn1)NO` .
OUTPUT: 0.65 µg/mL

INPUT: Also check `O=C(CCCCCn1cc(-c2ccc(-c3ccncc3)cc2)nn1)NO`
OUTPUT: 0.0475 µg/mL

INPUT: Repeat for the following molecule: `O=C(CCCCCn1cc(-c2cccnc2)nn1)NO`
OUTPUT: 0.205 µg/mL

INPUT: Request: `C[C@@H]1CC[C@H]2[C@@H](C)C(=O)O[C@@H]3O[C@@]4(C)CC[C@@H]1[C@]32OO4`
OUTPUT: 0.006 µg/mL

INPUT: Let us now turn to `CN(C)c1ccc(-c2cn(CCCCCCCC(=O)NO)nn2)cc1`
OUTPUT: 0.185 µg/mL

INPUT: Param item: `Cc1ccc(-c2cn(CCCCCC(=O)NO)nn2)cc1`
OUTPUT: 0.14 µg/mL

INPUT: Further, for `O=C(CCCCCCn1cc(-c2ccccc2)nn1)NO` ?
OUTPUT: 0.0245 µg/mL
